Test: Compound A plasma concentration and food effect in patients
Format: in vivo, human
Settings: human, plasma; 100 mg BID, Day 8, 3 h post-dose peak
QUANTITY: concentration at 3 h post-dose on Day 8 (ng/mL)
Numbers only, in ng/mL.

Would you kindly share the measured concentration at 3 h post-dose on Day 8 for Cc1ncc(F)c(Nc2n[nH]c3c2CN(C(=O)N2C[C@@H](C)N(CC4CCOCC4)C[C@@H]2C)C3(C)C)n1 [Compound A] ?
587

---

Assay: Compound A plasma concentration and food effect in patients
Type: in vivo, human
Conditions: human, plasma; 200 mg BID, Day 8, 3 h post-dose peak
QUANTITY: concentration at 3 h post-dose on Day 8 (ng/mL)
Answers are plain numbers, in ng/mL.

Would you kindly share the measured concentration at 3 h post-dose on Day 8 for Cc1ncc(F)c(Nc2n[nH]c3c2CN(C(=O)N2C[C@@H](C)N(CC4CCOCC4)C[C@@H]2C)C3(C)C)n1 [Compound A] ?
837

From: patent US20230028918A1
